- Assay target: CB1 (mutant) (Homo sapiens, UniProt P21554)
- Sequence (P21554 1-417, change not shown): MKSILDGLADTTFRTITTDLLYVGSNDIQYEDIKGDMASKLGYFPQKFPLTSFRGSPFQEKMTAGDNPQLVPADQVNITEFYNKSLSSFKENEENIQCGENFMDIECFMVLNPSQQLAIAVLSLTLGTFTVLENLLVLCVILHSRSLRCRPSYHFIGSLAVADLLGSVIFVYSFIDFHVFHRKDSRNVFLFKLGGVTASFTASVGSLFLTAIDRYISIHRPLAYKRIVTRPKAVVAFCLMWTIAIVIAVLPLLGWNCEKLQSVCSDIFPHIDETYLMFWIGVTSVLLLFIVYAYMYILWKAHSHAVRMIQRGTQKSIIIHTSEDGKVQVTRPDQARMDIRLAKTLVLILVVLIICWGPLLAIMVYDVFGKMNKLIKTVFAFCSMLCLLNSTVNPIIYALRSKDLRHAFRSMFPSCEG
- Measurement notes: R-SAT functional receptor assay, CB1 (mutant, truncated after amino acid 417)
- Assay type: cell-based
- Assay context: Appendix A; R-SAT CB1; receptor form (mutant or wild-type) not stated; read-out: pIC50 (converted)
Measurement name: log10(IC50) (log10 of the value in nM)
Remember, log10 of IC50, in nM.

{"Molecule": "COc1cccc(C2=Nc3cc(C(=O)NCCC(F)(F)F)ccc3Sc3ccccc32)n1 [drawing 707]", "log10(IC50)": 0.90}
{"Molecule": "CCCC1=Nc2cc(C(=O)NC(C)CC)ccc2Sc2ccccc21 (stereo not drawn)", "log10(IC50)": 2.00}
{"Molecule": "O=C(NN1CCCCC1)c1ccc2c(c1)NC(C1CCCCC1)c1ccccc1S2 (stereo not drawn)", "log10(IC50)": 2.70}
{"Molecule": "Cc1cccnc1C1=Nc2cc(C(=O)NC3CCCC3)ccc2Sc2ccccc21", "log10(IC50)": 3.00}
{"Molecule": "O=C(Cc1ccccc1)NNC(=O)c1ccc2c(c1)N=C(c1ccc(Cl)cc1)c1ccccc1S2 [drawing 588]", "log10(IC50)": 1.70}
{"Molecule": "Cc1ccsc1C1=Nc2cc(C(=O)NCC(C)C)ccc2Sc2ccccc21 [drawing 757]", "log10(IC50)": 1.00}
{"Molecule": "CCONC(=O)c1ccc2c(c1)N=C(c1cccc(F)c1)c1ccccc1S2", "log10(IC50)": 2.30}
{"Molecule": "O=C(NCCc1ccccc1)c1ccc2c(c1)N=C(c1ccccc1F)c1ccccc1S2 [drawing 600]", "log10(IC50)": 1.70}

Query molecule follows.
Ask: Item O=C(NC1CCCCC1)c1ccc2c(c1)N=C(c1ccc(F)cc1)c1ccccc1S2 [drawing 951] : provide log10(IC50)
Result: 1.30

---

Known Ki of a selection of molecules
- Assay target: native CB1 receptors (Rattus norvegicus, UniProt P20272)
- Sequence (P20272 whole entry): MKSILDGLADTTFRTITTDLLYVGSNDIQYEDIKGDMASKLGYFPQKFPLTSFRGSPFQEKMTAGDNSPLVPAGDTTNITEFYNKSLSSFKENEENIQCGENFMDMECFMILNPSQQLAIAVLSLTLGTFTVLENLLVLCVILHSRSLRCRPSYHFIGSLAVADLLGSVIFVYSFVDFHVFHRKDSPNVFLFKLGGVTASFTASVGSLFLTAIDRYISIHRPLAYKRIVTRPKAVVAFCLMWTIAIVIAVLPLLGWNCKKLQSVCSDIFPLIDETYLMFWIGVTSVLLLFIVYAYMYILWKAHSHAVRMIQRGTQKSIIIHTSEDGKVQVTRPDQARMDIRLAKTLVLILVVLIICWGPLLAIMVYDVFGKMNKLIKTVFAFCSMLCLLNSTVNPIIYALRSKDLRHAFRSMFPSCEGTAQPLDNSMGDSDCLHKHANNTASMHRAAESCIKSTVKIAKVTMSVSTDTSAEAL
- Measurement notes: CB1 receptor rat binding assay ([3H]SR141716A, rat brain membranes)
- Assay context: rat brain membranes, [3H]SR141716A; read-out: Binding rat pKi (converted)
Number in nM, nothing else.

{"Molecule": "CCCCNC(=O)c1cc2c(cc1O)Sc1ccccc1C(c1ccc(Cl)cc1)=N2 [drawing 1410]", "Assay target": "native CB1 receptors (Rattus norvegicus, UniProt P20272)", "Endpoint unit": "nM", "Quantitative result": 6.31}

Ask: Item O=C(NCc1ccccc1)c1ccc2c(c1)N=C(c1ccccc1)c1ccccc1S2 [drawing 1219] : provide Ki
Result: 15.8

Ask: Item CCCCNC(=O)c1ccc2c(c1)N=C(c1ccc(F)c(F)c1)c1ccccc1S2 : provide Ki
Result: 2.51

Ask: Item O=C(NC1CCCCC1)c1ccc2c(c1)N=C(c1cccc(F)c1)c1ccccc1S2 [drawing 1306] : provide Ki
Result: 3.16

Ask: Item CCCNC(=O)c1ccc2c(c1)N=C(c1ccc(Br)cc1)c1ccccc1S2 [drawing 1259] : provide Ki
Result: 15.8

Ask: Item Cc1csc(CNC(=O)c2ccc3c(c2)N=C(c2cccc(F)c2)c2ccccc2S3)c1 [drawing 1234] : provide Ki
Result: 0.794

Ask: Item O=C(NCc1cccnc1)c1ccc2c(c1)N=C(c1ccccc1F)c1ccccc1S2 [drawing 1318] : provide Ki
Result: 25.1

Ask: Item Cc1ccc(CNC(=O)c2ccc3c(c2)N=C(c2cccc(F)c2)c2ccccc2S3)o1 [drawing 1481] : provide Ki
Result: 10

---

- Measurement notes: Clearance study, liver microsomes (human)
- Assay context: pH 7.4
Known microsomal CLint at 1 μM of a selection of compounds
Just so you know, I need the unit written after the number.

{"Compound": "O=C(NCCc1ccc(Cl)cc1)c1ccc2c(c1)N=C(C1CCCCC1)c1ccccc1S2 [drawing 1737]", "microsomal CLint at 1 μM": "138 µL/min/mg"}

Ask: Item O=C(NCCCC(F)(F)F)c1ccc2c(c1)N=C(c1ccc(Cl)cc1F)c1ccccc1S2 [drawing 1653] : provide microsomal CLint at 1 μM
Result: 14 µL/min/mg

Ask: Item O=C(NCc1cccc(Cl)c1)c1ccc2c(c1)N=C(c1ccc(Cl)cc1)c1ccccc1S2 [drawing 1725] : provide microsomal CLint at 1 μM
Result: 9 µL/min/mg

Ask: Item O=C(NCCCC(F)(F)F)c1ccc2c(c1)N=C(c1ccc(Cl)s1)c1ccccc1S2 [drawing 1655] : provide microsomal CLint at 1 μM
Result: 31 µL/min/mg

---

- Assay target: CB1 (mutant) (Homo sapiens)
- Measurement notes: R-SAT functional receptor assay, CB1 (mutant, truncated after amino acid 417)
- Assay type: cell-based
- Assay context: Appendix A; R-SAT CB1; receptor form not stated; relative to SR141716 (100%); read-out: % Inhibition
Measurement name: Emax (%)
Number in %, nothing else.

A selection of reference data follows.
{"Compound": "O=C(NCc1cccc(Cl)c1)c1ccc2c(c1)N=C(c1ccc(F)cc1)c1ccccc1[S+]2[O-] (stereo not drawn) [drawing 670]", "Measurement name": "Emax", "Quantitative result": 89}
{"Compound": "O=C(NN1CCCCC1)c1ccc2c(c1)N=C(c1cccc(F)c1)c1ccccc1S2 [drawing 929]", "Measurement name": "Emax", "Quantitative result": 111}
{"Compound": "CONC(=O)c1ccc2c(c1)N=C(c1ccc(Br)cc1)c1ccccc1S2", "Measurement name": "Emax", "Quantitative result": 68}
{"Compound": "CONC(=O)c1ccc2c(c1)N=C(c1ccc(C#N)cc1)c1ccccc1S2", "Measurement name": "Emax", "Quantitative result": 36}

Ask: Item CCCCNC(=O)c1ccc2c(c1)N=C(c1ccc(Br)cn1)c1ccccc1S2 [drawing 807] : provide Emax
Result: 105

---

- Assay target: CB1 (mutant) (Homo sapiens, UniProt P21554)
- Measurement notes: R-SAT functional receptor assay, CB1 (mutant, truncated after amino acid 417)
- Assay type: cell-based
- Assay context: Appendix A; R-SAT CB1; receptor form not stated; relative to SR141716 (100%); read-out: % Inhibition
Label key: Satisfied means Emax under 80%; Not satisfied means Emax of 80% or more.

Here's what some known entries look like.
{"Compound": "CCOC(=O)N1CCC(NC(=O)c2ccc3c(c2)N=C(CC(C)C)c2ccccc2S3)CC1", "Group": "Not satisfied"}
{"Compound": "C[C@@H]1CCC[C@H](C)N1NC(=O)c1ccc2c(c1)N=C(c1ccc(Cl)cc1)c1ccccc1S2 [drawing 1133]", "Group": "Not satisfied"}
{"Compound": "CCCC1=Nc2cc(C(=O)NCCC3=CCCCC3)ccc2Sc2ccccc21", "Group": "Not satisfied"}
{"Compound": "Cc1cc(NC(=O)c2ccc3c(c2)N=C(c2cccc(F)c2)c2ccccc2S3)no1", "Group": "Satisfied"}
{"Compound": "O=C(NCCCc1ccccc1)c1ccc2c(c1)N=C(c1ccc(Cl)cc1)c1ccccc1S2 [drawing 645]", "Group": "Not satisfied"}

Shifting focus to the compound that follows.
Ask: Does this compound meet the criterion Emax < 80%? O=C(NCCCC(F)(F)F)c1ccc2c(c1)N=C(c1ccc(Cl)s1)c1ccccc1S2 [drawing 559]
Result: Not satisfied

---

- Measurement notes: Clearance study, liver microsomes (human)
- Assay context: pH 7.4
Known microsomal CLint at 1 μM of a selection of compounds
Number in µL/min/mg, nothing else.

{"Compound": "CCOC(=O)N1CCC(NC(=O)c2ccc3c(c2)N=C(c2ccc(Cl)cc2)c2ccccc2S3)CC1 [drawing 1726]", "Quantitative result": 88}
{"Compound": "CCCCNC(=O)c1cnc2c(n1)N=C(c1ccccc1)c1ccccc1S2 [drawing 1722]", "Quantitative result": 38}
{"Compound": "O=C(NCCCC(F)(F)F)c1ccc2c(c1)N=C(c1cccc(F)c1)c1ccccc1S2 [drawing 1719]", "Quantitative result": 24}
{"Compound": "O=C(NCCc1ccccc1)c1ccc2c(c1)N=C(c1ccc(Cl)cc1)c1ccccc1S2 [drawing 1745]", "Quantitative result": 62}
{"Compound": "Cc1ccsc1C1=Nc2cc(C(=O)NN3CCCCC3)ccc2Sc2ccccc21 [drawing 1730]", "Quantitative result": 50}
{"Compound": "O=C(NCc1cccc(Cl)c1)c1ccc2c(c1)N=C(c1cccc(Cl)c1)c1ccccc1S2 [drawing 1729]", "Quantitative result": 36}
{"Compound": "Cc1ccsc1C1=Nc2cc(C(=O)NCCCC(F)(F)F)ccc2Sc2ccccc21 [drawing 1701]", "Quantitative result": 379}
{"Compound": "Cc1ccsc1C1=Nc2cc(C(=O)NCc3ccco3)ccc2Sc2ccccc21 [drawing 1762]", "Quantitative result": 155}
{"Compound": "O=C(NN1CCCCCC1)c1ccc2c(c1)N=C(c1ccc(Cl)s1)c1ccccc1S2 [drawing 1687]", "Quantitative result": 122}
{"Compound": "Cc1cccc(C2=Nc3cc(C(=O)NCC(C)C)ccc3Sc3ccccc32)n1 [drawing 1692]", "Quantitative result": 35}

Ask: Item O=C(NC1CCCCC1)c1ccc2c(c1)N=C(c1cccc(Cl)c1)c1ccccc1S2 [drawing 1675] : provide microsomal CLint at 1 μM
Result: 12

Ask: Item O=C(NCCc1ccc(Cl)cc1)c1ccc2c(c1)N=C(N1CCCCC1)c1ccccc1S2 [drawing 1783] : provide microsomal CLint at 1 μM
Result: 434

Ask: Item CCCCNC(=O)c1ccc2c(c1)N=C(c1ccc(Cl)s1)c1cc(F)ccc1S2 [drawing 1710] : provide microsomal CLint at 1 μM
Result: 41

Ask: Item O=C(NCc1ccccc1)c1ccc2c(c1)N=C(c1ccc(Cl)cc1)c1ccccc1S2 [drawing 1801] : provide microsomal CLint at 1 μM
Result: 23

Ask: Item CC(NC(=O)c1ccc2c(c1)N=C(c1ccc(Cl)cc1)c1ccccc1S2)c1ccccc1 (centres unmarked) [drawing 1804] : provide microsomal CLint at 1 μM
Result: 18

Ask: Item O=C(NCCc1cccnc1)c1ccc2c(c1)N=C(c1cccc(Cl)c1)c1ccccc1S2 [drawing 1770] : provide microsomal CLint at 1 μM
Result: 130

Ask: Item CCCNC(=O)c1ccc2c(c1)N=C(c1ccc(Cl)cc1)c1ccccc1S2 [drawing 1691] : provide microsomal CLint at 1 μM
Result: 15

Ask: Item O=C(NCCc1ccc(Cl)cc1)c1ccc2c(c1)N=C(N1CCC(F)(F)CC1)c1ccccc1S2 [drawing 1802] : provide microsomal CLint at 1 μM
Result: 343

Ask: Item O=C(NCCc1ccc(Cl)cc1)c1ccc2c(c1)N=C(c1ccc(F)cc1)c1ccccc1S2 [drawing 1799] : provide microsomal CLint at 1 μM
Result: 100

Ask: Item CC(C)CNC(=O)c1ccc2c(c1)N=C(c1ccc(Cl)cc1F)c1ccccc1S2 [drawing 1677] : provide microsomal CLint at 1 μM
Result: 20

Ask: Item CC(C)CNC(=O)c1ccc2c(c1)N=C(c1ccc(Cl)cn1)c1ccc(Cl)cc1S2 [drawing 1806] : provide microsomal CLint at 1 μM
Result: 13

Ask: Item O=C(NNCC(F)(F)F)c1ccc2c(c1)N=C(c1ccc(Cl)cc1)c1ccccc1S2 [drawing 1696] : provide microsomal CLint at 1 μM
Result: 21

Ask: Item O=C(NCc1cccnc1)c1ccc2c(c1)N=C(c1ccc(Cl)cc1)c1ccccc1S2 [drawing 1756] : provide microsomal CLint at 1 μM
Result: 41
